# Tested on: A375 multi-cell spheroids with HUVEC/MSC, viability
# measurementNotes: Anticancer human tumor A375 cell line growth inhibition [GQUAD];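 further: spheroids exposed to compounds for seven days before readout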
# studyConditions: second compound 0.0316 µM; first compound 0.316 µM; stronger effect = lower value

{"columns": ["compound", "measuredOn", "units", "viability, T/C"],
 "data": [
  ["COc1cc(C2c3cc4c(cc3C(OC3OC5COC(C)OC5C(O)C3O)C3COC(=O)C23)OCO4)cc(OC)c1O (stereo unspecified) + Cc1[nH]c2ccc(F)cc2c1-c1nc2c3cccnc3c3ncccc3c2[nH]1", "A375 multi-cell spheroids with HUVEC/MSC, viability", "%", 97.6],
  ["CC[C@@]1(O)C(=O)OCc2c1cc1n(c2=O)Cc2cc3c(CN(C)C)c(O)ccc3nc2-1 + Cc1[nH]c2ccc(F)cc2c1-c1nc2c3cccnc3c3ncccc3c2[nH]1", "A375 multi-cell spheroids with HUVEC/MSC, viability", "%", 12.9],
  ["C#Cc1c(F)ccc2cc(O)cc(-c3ncc4c(N5CC6CCC(C5)N6)nc(OCC56CCCN5CC(F)C6)nc4c3F)c12 (stereo unspecified) + Cc1[nH]c2ccc(F)cc2c1-c1nc2c3cccnc3c3ncccc3c2[nH]1", "A375 multi-cell spheroids with HUVEC/MSC, viability", "%", 97.1],
  ["CC(C)(O)C1CCC(Nc2ccc3ncc(-c4cccc(C(F)(F)F)c4)n3n2)CC1 (stereo unspecified) + CN(C)c1ccc(Nc2c3ccc(NC(=O)CCN4CCCC4)cc3nc3cc(NC(=O)CCN4CCCC4)ccc23)cc1", "A375 multi-cell spheroids with HUVEC/MSC, viability", "%", 95.7],
  ["O=C(NO)c1cnc(N2CCN(S(=O)(=O)c3ccc4ccccc4c3)CC2)nc1 + CN(C)c1ccc(Nc2c3ccc(NC(=O)CCN4CCCC4)cc3nc3cc(NC(=O)CCN4CCCC4)ccc23)cc1", "A375 multi-cell spheroids with HUVEC/MSC, viability", "%", 4.84],
  ["CCCS(=O)(=O)Nc1ccc(F)c(C(=O)c2c[nH]c3ncc(-c4ccc(Cl)cc4)cc23)c1F + CN(C)c1ccc(Nc2c3ccc(NC(=O)CCN4CCCC4)cc3nc3cc(NC(=O)CCN4CCCC4)ccc23)cc1", "A375 multi-cell spheroids with HUVEC/MSC, viability", "%", 8.13],
  ["O=C(NO)c1cnc(N2CCN(S(=O)(=O)c3ccc4ccccc4c3)CC2)nc1 + Cc1cnc(CNC(=O)c2c(=O)c3ccc(N4CCCN(C)CC4)nc3n3c2sc2ccccc23)cn1", "A375 multi-cell spheroids with HUVEC/MSC, viability", "%", 11.9],
  ["COc1cccc2c1C(=O)c1c(O)c3c(c(O)c1C2=O)CC(O)(C(=O)CO)CC3OC1CC(N)C(O)C(C)O1 (stereo unspecified) + Cc1[nH]c2ccc(F)cc2c1-c1nc2c3cccnc3c3ncccc3c2[nH]1", "A375 multi-cell spheroids with HUVEC/MSC, viability", "%", 38.9],
  ["O=c1[nH]cc(F)c(=O)[nH]1 + Cc1cnc(CNC(=O)c2c(=O)c3ccc(N4CCCN(C)CC4)nc3n3c2sc2ccccc23)cn1", "A375 multi-cell spheroids with HUVEC/MSC, viability", "%", 92.4],
  ["CCc1c2c(nc3ccc(O)cc13)-c1cc3c(c(=O)n1C2)COC(=O)[C@]3(O)CC + Cc1[nH]c2ccc(F)cc2c1-c1nc2c3cccnc3c3ncccc3c2[nH]1", "A375 multi-cell spheroids with HUVEC/MSC, viability", "%", 0.52],
  ["COc1ncnc(C2CC2)c1-c1ncc2cnn(Cc3ccc(-c4nc(C(F)(F)F)cn4C(C)C)cc3)c2n1 + Cc1cnc(CNC(=O)c2c(=O)c3ccc(N4CCCN(C)CC4)nc3n3c2sc2ccccc23)cn1", "A375 multi-cell spheroids with HUVEC/MSC, viability", "%", 102],
  ["O=C(c1cc(Cc2n[nH]c(=O)c3ccccc23)ccc1F)N1CCN(C(=O)C2CC2)CC1 + CN(C)c1ccc(Nc2c3ccc(NC(=O)CCN4CCCC4)cc3nc3cc(NC(=O)CCN4CCCC4)ccc23)cc1", "A375 multi-cell spheroids with HUVEC/MSC, viability", "%", 113],
  ["Cc1cccc(N(C)C(=O)C2C(O)CCN2c2nc(C)cc(C(F)(F)F)c2C#N)c1 (stereo unspecified) + Cc1cnc(CNC(=O)c2c(=O)c3ccc(N4CCCN(C)CC4)nc3n3c2sc2ccccc23)cn1", "A375 multi-cell spheroids with HUVEC/MSC, viability", "%", 104],
  ["O=C(NO)c1cnc(N2CCN(S(=O)(=O)c3ccc4ccccc4c3)CC2)nc1 + Cc1[nH]c2ccc(F)cc2c1-c1nc2c3cccnc3c3ncccc3c2[nH]1", "A375 multi-cell spheroids with HUVEC/MSC, viability", "%", 13.4],
  ["COc1ncnc(C2CC2)c1-c1ncc2cnn(Cc3ccc(-c4nc(C(F)(F)F)cn4C(C)C)cc3)c2n1 + CN(C)c1ccc(Nc2c3ccc(NC(=O)CCN4CCCC4)cc3nc3cc(NC(=O)CCN4CCCC4)ccc23)cc1", "A375 multi-cell spheroids with HUVEC/MSC, viability", "%", 115],
  ["Cc1[nH]c2ccccc2c1CCNCc1ccc(/C=C/C(=O)NO)cc1 + Cc1[nH]c2ccc(F)cc2c1-c1nc2c3cccnc3c3ncccc3c2[nH]1", "A375 multi-cell spheroids with HUVEC/MSC, viability", "%", 10.5],
  ["C=CCn1c(=O)c2cnc(Nc3ccc(N4CCN(C)CC4)cc3)nc2n1-c1cccc(C(C)(C)O)n1 + Cc1cnc(CNC(=O)c2c(=O)c3ccc(N4CCCN(C)CC4)nc3n3c2sc2ccccc23)cn1", "A375 multi-cell spheroids with HUVEC/MSC, viability", "%", 81],
  ["C=CCn1c(=O)c2cnc(Nc3ccc(N4CCN(C)CC4)cc3)nc2n1-c1cccc(C(C)(C)O)n1 + CN(C)c1ccc(Nc2c3ccc(NC(=O)CCN4CCCC4)cc3nc3cc(NC(=O)CCN4CCCC4)ccc23)cc1", "A375 multi-cell spheroids with HUVEC/MSC, viability", "%", 96.4],
  ["Cc1[nH]c2ccccc2c1CCNCc1ccc(/C=C/C(=O)NO)cc1 + CN(C)c1ccc(Nc2c3ccc(NC(=O)CCN4CCCC4)cc3nc3cc(NC(=O)CCN4CCCC4)ccc23)cc1", "A375 multi-cell spheroids with HUVEC/MSC, viability", "%", 9.06],
  ["COc1ccc([C@@H](O)c2cc(-c3ncnc4cc(N5CCOCC5)ccc34)c(F)cc2Cl)nn1 + Cc1[nH]c2ccc(F)cc2c1-c1nc2c3cccnc3c3ncccc3c2[nH]1", "A375 multi-cell spheroids with HUVEC/MSC, viability", "%", 103],
  ["Cn1ncnc1[C@H]1c2n[nH]c(=O)c3cc(F)cc(c23)N[C@@H]1c1ccc(F)cc1 + Cc1cnc(CNC(=O)c2c(=O)c3ccc(N4CCCN(C)CC4)nc3n3c2sc2ccccc23)cn1", "A375 multi-cell spheroids with HUVEC/MSC, viability", "%", 90.6]
]}
